- Tested on: RNAi-treated eri-1 (mg366) nematodes
- procedure.details: RNAi screening of olfactory receptor genes: chemotaxis assay of RNAi-treated nematodes to odorants
- Type: in vivo, Caenorhabditis elegans
- measurement.setup: srh-74 RNAi-treated nematodes; repellent or high concentration of attractant
Define the label as class 1 when chemotaxis index is strictly less than -0.9 and as class 0 in all remaining cases.

Worked examples follow.
O=Cc1ccccc1: class 1
CC(C)CCO: class 0
CCCCCCCC(C)=O: class 1

Is the reported chemotaxis index for `CC(=O)C(C)=O` strictly below -0.9?
class 0

----------
Reported chemotaxis index values are given for each entry in this list.
- System: RNAi-treated eri-1 (mg366) nematodes
- procedure.details: RNAi screening of olfactory receptor genes: chemotaxis assay of RNAi-treated nematodes to odorants
- Assay type: in vivo, Caenorhabditis elegans
- measurement.setup: srh-130 RNAi-treated nematodes; low concentration of attractant
// no unit, no text: just the number

Below, each entry is followed by its recorded chemotaxis index result.
CCC(=O)C(C)=O: 0.36
c1cnccn1: 0.22
Cc1nc(C)c(C)s1: 0.70

Please tell me the measured chemotaxis index for `CCC(C)=O` ; system: RNAi-treated eri-1 (mg366) nematodes.
0.82

----------
- Tested on: RNAi-treated eri-1 (mg366) nematodes
- procedure.details: RNAi screening of olfactory receptor genes: chemotaxis assay of RNAi-treated nematodes to odorants
- Format: in vivo, Caenorhabditis elegans
- measurement.setup: srh-50 RNAi-treated nematodes; repellent or high concentration of attractant
metric: chemotaxis index
Answer with a bare number; do not write a unit.

Example compounds with recorded chemotaxis index:
CC(=O)C(C)=O: −0.52
CC(C)CCO: −0.93
O=Cc1ccccc1: −1.00

Note down chemotaxis index recorded for `CCCCCCCC(C)=O`
−0.96

For the compound `CCCCCCCCO` , give its reported chemotaxis index.
−0.89

----------
chemotaxis index reference
- System: RNAi-treated eri-1 (mg366) nematodes
- procedure.details: RNAi screening of olfactory receptor genes: chemotaxis assay of RNAi-treated nematodes to odorants
- Type: in vivo, Caenorhabditis elegans
- measurement.setup: srh-55 RNAi-treated nematodes; low concentration of attractant
When you answer, write just the number.

c1cnccn1: 0.56
CCC(C)=O: 0.43

Would you kindly look at the next entry?
Return chemotaxis index for the following molecule: `CCC(=O)C(C)=O`
0.49
